pIC50: −log10 of the molar value.
Values of pIC50 reported for L-lactate dehydrogenase B chain (Bos taurus, UniProt Q5E9B1) appear below.
endpoint.label: pIC50

Recorded pIC50, per entry:
Cc1cc2c(C(C)C)c(O)c(O)c(C=O)c2c(O)c1-c1c(C)cc2c(C(C)C)c(O)c(O)c(C=O)c2c1O [Tash 1] ... 5.16
O=C(O)C(=O)NCCCCc1ccccc1 [Oxamic Acid/Ester, 41] ... 4.06
O=C(O)C(=O)NCCC(c1ccccc1)c1ccccc1 [Oxamic Acid/Ester, 36] ... 4.05

(A) O=C(O)C(=O)N1CCC(Cc2ccccc2)CC1 [Oxamic Acid/Ester, 20]
(B) COCCCNC(=O)C(=O)O [Oxamic Acid/Ester, 25]
### Prompt Sorting by pIC50 in descending order, would A or B appear first? Indicate your choice by writing its label.
### Response B
(B: 4.51, A: 4.23)
